Reported pEC50 is given for each of the following compounds.
- assay: Potentiation activity at human CFTR delta F508 mutant-mediated iodine flux expressed in rat FRT cells coexpressing fluorescent protein YFP-H148Q/1152L by fluorescence assay
- Assay type: cell-based
pEC50: −log10 of the molar value.

structure-smiles	pEC50
CN(C(=O)Cc1c[nH]c2ccccc12)[C@H](C(=O)Nc1ccc(-n2cc(CCC[19F])nn2)cc1)c1ccccc1	5.96
CN(C(=O)Cc1c[nH]c2ccccc12)[C@H](C(=O)Nc1ccc([19F])cc1)c1ccccc1	7.05

Taken from ChEMBL document CHEMBL1949595.
